For each entry below, report its viability, T/C value.
# Test system: KRAS PDC multicell spheroid viability
# assay-explanation: Anticancer human tumor 521955-158-R6-J3-PDC patient-derived pancreatic carcinoma cell line growth inhibition [KRAS2]
# assay-context: second compound 3.16 µM; first compound 0.0316 µM; hits give low values
Give just the number in %; leave the unit off.

So what's the measured viability, T/C for this one? O=C(c1cc(Cc2n[nH]c(=O)c3ccccc23)ccc1F)N1CCN(C(=O)C2CC2)CC1 + CNCc1ccccc1-c1csc(C(C)Nc2nc(C)nc3cc(OC)c(OC)cc23)c1
1.32

// repeat for CC(C)n1nc(-c2ccc3oc(N)nc3c2)c2c(N)ncnc21 + C=CC(=O)N1CCN(c2nc(=O)n(-c3c(C)ccnc3C(C)C)c3nc(-c4c(O)cccc4F)c(F)cc23)C(C)C1 and report
66.7

Also CC(=O)OC12COC1CC(O)C1(C)C(=O)C(O)C3=C(C)C(OC(=O)C(O)C(NC(=O)OC(C)(C)C)c4ccccc4)CC(O)(C(OC(=O)c4ccccc4)C21)C3(C)C (stereo not drawn) + CC1OCC2(CCN(c3cnc(Sc4ccnc(N)c4Cl)c(N)n3)CC2)C1N , if possible.
86.6

Item: CCNC(=O)CC1N=C(c2ccc(Cl)cc2)c2cc(OC)ccc2-n2c(C)nnc21 (stereo not drawn) + C=CC(=O)N1CCN(c2nc(OCC3CCCN3C)nc3c2CCN(c2cccc4cccc(C)c24)C3)CC1CC#N
47

Ok, now COC(=O)c1ccc2c(C(=Nc3ccc(N(C)C(=O)CN4CCN(C)CC4)cc3)c3ccccc3)c(O)[nH]c2c1 + C=CC(=O)N1CCN(c2nc(OCC3CCCN3C)nc3c2CCN(c2cccc4cccc(C)c24)C3)CC1CC#N
36.9

Try the compound CCN1CCN(Cc2ccc(Nc3ncc(F)c(-c4cc(F)c5nc(C)n(C(C)C)c5c4)n3)nc2)CC1 + C=CC(=O)N1CCN(c2nc(OCC3CCCN3C)nc3c2CCN(c2cccc4cccc(C)c24)C3)CC1CC#N
25.9

Next compound: CN(C)C/C=C/C(=O)Nc1cc2c(Nc3ccc(F)c(Cl)c3)ncnc2cc1O[C@H]1CCOC1 + CC1OCC2(CCN(c3cnc(Sc4ccnc(N)c4Cl)c(N)n3)CC2)C1N
28.3

Another compound: COc1cc2nccc(Oc3ccc(NC(=O)C4(C(=O)Nc5ccc(F)cc5)CC4)cc3)c2cc1OC + CNCc1ccccc1-c1csc(C(C)Nc2nc(C)nc3cc(OC)c(OC)cc23)c1
0.94

* * *

# Tested on: KRAS PDC multicell spheroid viability
# assay-explanation: Anticancer human tumor 521955-158-R6-J3-PDC cell line growth inhibition [KRAS2];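 further: drug exposure lasted seven days; 100% = DMSO vehicle wells and lower means fewer viable cells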
# assay-context: second compound 10 µM; first compound 1 µM; hits give low values
Please go through the items and note down their viability, T/C.
Express your answer in %, writing the number without its unit.

Request - read-out viability, T/C | tested on KRAS PDC multicell spheroid viability | molecule CCNC(=O)CC1N=C(c2ccc(Cl)cc2)c2cc(OC)ccc2-n2c(C)nnc21 (centres undefined) + C=CC(=O)N1CCN(c2nc(=O)n(-c3c(C)ccnc3C(C)C)c3nc(-c4c(O)cccc4F)c(F)cc23)C(C)C1
35.5

What do you have for O=C(c1cc(Cc2n[nH]c(=O)c3ccccc23)ccc1F)N1CCN(C(=O)C2CC2)CC1 + COc1cc2nc(C)nc(NC(C)c3cc(N)cc(C(F)(F)F)c3)c2cc1OC1CCOC1 ?
53.3

And what about the molecule O=C(c1cc(Cc2n[nH]c(=O)c3ccccc23)ccc1F)N1CCN(C(=O)C2CC2)CC1 + C=CC(=O)N1CCN(c2nc(=O)n(-c3c(C)ccnc3C(C)C)c3nc(-c4c(O)cccc4F)c(F)cc23)C(C)C1 ?
84

Also CC1OCC2(CCN(c3cnc(Sc4ccnc(N)c4Cl)c(N)n3)CC2)C1N (centres undefined) + COc1cc2nc(C)nc(NC(C)c3cc(N)cc(C(F)(F)F)c3)c2cc1OC1CCOC1 , if possible.
27.1

Okay, and CC(C)NCC(C(=O)N1CCN(c2ncnc3c2C(C)CC3O)CC1)c1ccc(Cl)cc1 (centres undefined) + C=CC(=O)N1CCN(c2nc(=O)n(-c3c(C)ccnc3C(C)C)c3nc(-c4c(O)cccc4F)c(F)cc23)C(C)C1 ?
43.3

Same question, COc1cc2nccc(Oc3ccc(NC(=O)C4(C(=O)Nc5ccc(F)cc5)CC4)cc3)c2cc1OC + COc1cc2nc(C)nc(NC(C)c3cc(N)cc(C(F)(F)F)c3)c2cc1OC1CCOC1 this time
27.6

Would you mind doing COC(=O)c1ccc2c(C(=Nc3ccc(N(C)C(=O)CN4CCN(C)CC4)cc3)c3ccccc3)c(O)[nH]c2c1 + CNCc1ccccc1-c1csc(C(C)Nc2nc(C)nc3cc(OC)c(OC)cc23)c1 as well?
0.14

Try the molecule COc1cc(Nc2ncc3c(n2)-c2ccc(Cl)cc2C(c2c(F)cccc2OC)=NC3)ccc1C(=O)O + CC1OCC2(CCN(c3cnc(Sc4ccnc(N)c4Cl)c(N)n3)CC2)C1N
96.5

Now give it for CC1(C)CCC(CN2CCN(c3ccc(C(=O)NS(=O)(=O)c4ccc(NCC5CCOCC5)c([N+](=O)[O-])c4)c(Oc4cnc5[nH]ccc5c4)c3)CC2)=C(c2ccc(Cl)cc2)C1 + CNCc1ccccc1-c1csc(C(C)Nc2nc(C)nc3cc(OC)c(OC)cc23)c1 too.
0.23

Further, for COc1cc(Nc2ncc3c(n2)-c2ccc(Cl)cc2C(c2c(F)cccc2OC)=NC3)ccc1C(=O)O + COc1cc2nc(C)nc(NC(C)c3cc(N)cc(C(F)(F)F)c3)c2cc1OC1CCOC1 ?
31.2

Also O=C(c1cc(Cc2n[nH]c(=O)c3ccccc23)ccc1F)N1CCN(C(=O)C2CC2)CC1 + CC1OCC2(CCN(c3cnc(Sc4ccnc(N)c4Cl)c(N)n3)CC2)C1N , if possible.
70.3

Now consider CC1OCC2(CCN(c3cnc(Sc4ccnc(N)c4Cl)c(N)n3)CC2)C1N (centres undefined) + C=CC(=O)N1CCN(c2nc(=O)n(-c3c(C)ccnc3C(C)C)c3nc(-c4c(O)cccc4F)c(F)cc23)C(C)C1 and answer again.
54.8

Same lookup for CC(=O)OC12COC1CC(O)C1(C)C(=O)C(O)C3=C(C)C(OC(=O)C(O)C(NC(=O)OC(C)(C)C)c4ccccc4)CC(O)(C(OC(=O)c4ccccc4)C21)C3(C)C (centres undefined) + CNCc1ccccc1-c1csc(C(C)Nc2nc(C)nc3cc(OC)c(OC)cc23)c1 , please.
0.31

Cool, now CC1COCCN1c1cc(-c2ccnn2C)c2ccnc(-c3ccn[nH]3)c2n1 (centres undefined) + CC1OCC2(CCN(c3cnc(Sc4ccnc(N)c4Cl)c(N)n3)CC2)C1N
79.3

* * *

For each entry below, report its viability, T/C value.
# Test system: KRAS PDC multicell spheroid viability
# assay-explanation: Anticancer human tumor 521955-158-R6-J3-PDC cell line growth inhibition [KRAS2];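 further: drug exposure lasted seven days; 100% = DMSO vehicle wells and lower means fewer viable cells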
# assay-context: second compound 0.316 µM; first compound 0.001 µM; hits give low values
Your answer should be a plain number; it is taken to be in %.

Write down the reported viability, T/C of CN(C)C/C=C/C(=O)Nc1cc2c(Nc3ccc(F)c(Cl)c3)ncnc2cc1O[C@H]1CCOC1 + CNCc1ccccc1-c1csc(C(C)Nc2nc(C)nc3cc(OC)c(OC)cc23)c1 , test system: KRAS PDC multicell spheroid viability.
77.8

Do the same for CC(C)n1nc(-c2ccc3oc(N)nc3c2)c2c(N)ncnc21 + COc1cc2nc(C)nc(NC(C)c3cc(N)cc(C(F)(F)F)c3)c2cc1OC1CCOC1 please
85.9

# iterate: CN(C)C/C=C/C(=O)Nc1cc2c(Nc3ccc(F)c(Cl)c3)ncnc2cc1O[C@H]1CCOC1 + COc1cc2nc(C)nc(NC(C)c3cc(N)cc(C(F)(F)F)c3)c2cc1OC1CCOC1
106

* * *

# System: KRAS PDC multicell spheroid viability
# assay-explanation: Anticancer human tumor 521955-158-R6-J3-PDC cell line growth inhibition [KRAS2];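 further: drug exposure lasted seven days; 100% = DMSO vehicle wells and lower means fewer viable cells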
# assay-context: second compound 0.1 µM; first compound 0.1 µM; hits give low values
Please note: viability, T/C exactly at 80% is rule not met. Only values below 80% get rule met.

Consider CC1OCC2(CCN(c3cnc(Sc4ccnc(N)c4Cl)c(N)n3)CC2)C1N (stereo not given) + C=CC(=O)N1CCN(c2nc(=O)n(-c3c(C)ccnc3C(C)C)c3nc(-c4c(O)cccc4F)c(F)cc23)C(C)C1 . Does its viability, T/C lie strictly below 80%?
rule not met

Ok, now CC1(C)CCC(CN2CCN(c3ccc(C(=O)NS(=O)(=O)c4ccc(NCC5CCOCC5)c([N+](=O)[O-])c4)c(Oc4cnc5[nH]ccc5c4)c3)CC2)=C(c2ccc(Cl)cc2)C1 + CC1OCC2(CCN(c3cnc(Sc4ccnc(N)c4Cl)c(N)n3)CC2)C1N
rule not met

Subsequent entry: Cn1ncnc1[C@H]1c2n[nH]c(=O)c3cc(F)cc(c23)N[C@@H]1c1ccc(F)cc1 + COc1cc2nc(C)nc(NC(C)c3cc(N)cc(C(F)(F)F)c3)c2cc1OC1CCOC1
rule not met

Would you mind doing COC(=O)c1ccc2c(C(=Nc3ccc(N(C)C(=O)CN4CCN(C)CC4)cc3)c3ccccc3)c(O)[nH]c2c1 + C=CC(=O)N1CCN(c2nc(=O)n(-c3c(C)ccnc3C(C)C)c3nc(-c4c(O)cccc4F)c(F)cc23)C(C)C1 as well?
rule not met

Try CCNC(=O)CC1N=C(c2ccc(Cl)cc2)c2cc(OC)ccc2-n2c(C)nnc21 (stereo not given) + C=CC(=O)N1CCN(c2nc(OCC3CCCN3C)nc3c2CCN(c2cccc4cccc(C)c24)C3)CC1CC#N next.
rule not met

Repeat with Cn1nccc1Nc1nccc(-c2cc3c(s2)C(C)(C)N(CCN2CCOCC2)C3=O)n1 + COc1cc2nc(C)nc(NC(C)c3cc(N)cc(C(F)(F)F)c3)c2cc1OC1CCOC1
rule not met

What would you report for COc1cc2nccc(Oc3ccc(NC(=O)C4(C(=O)Nc5ccc(F)cc5)CC4)cc3)c2cc1OC + CNCc1ccccc1-c1csc(C(C)Nc2nc(C)nc3cc(OC)c(OC)cc23)c1 ?
rule not met

Same read-out for Cn1ncnc1[C@H]1c2n[nH]c(=O)c3cc(F)cc(c23)N[C@@H]1c1ccc(F)cc1 + CC1OCC2(CCN(c3cnc(Sc4ccnc(N)c4Cl)c(N)n3)CC2)C1N ?
rule met

// same read-out, input: COC(=O)c1ccc2c(C(=Nc3ccc(N(C)C(=O)CN4CCN(C)CC4)cc3)c3ccccc3)c(O)[nH]c2c1 + CNCc1ccccc1-c1csc(C(C)Nc2nc(C)nc3cc(OC)c(OC)cc23)c1
rule not met

Repeat for the following molecule: CCN1CCN(Cc2ccc(Nc3ncc(F)c(-c4cc(F)c5nc(C)n(C(C)C)c5c4)n3)nc2)CC1 + CC1OCC2(CCN(c3cnc(Sc4ccnc(N)c4Cl)c(N)n3)CC2)C1N
rule met

Param item: CCN1CCN(Cc2ccc(Nc3ncc(F)c(-c4cc(F)c5nc(C)n(C(C)C)c5c4)n3)nc2)CC1 + COc1cc2nc(C)nc(NC(C)c3cc(N)cc(C(F)(F)F)c3)c2cc1OC1CCOC1
rule not met

Same lookup for CCNC(=O)CC1N=C(c2ccc(Cl)cc2)c2cc(OC)ccc2-n2c(C)nnc21 (stereo not given) + CC1OCC2(CCN(c3cnc(Sc4ccnc(N)c4Cl)c(N)n3)CC2)C1N , please.
rule not met

Another: CC1COCCN1c1cc(-c2ccnn2C)c2ccnc(-c3ccn[nH]3)c2n1 (stereo not given) + COc1cc2nc(C)nc(NC(C)c3cc(N)cc(C(F)(F)F)c3)c2cc1OC1CCOC1
rule met

Field entry: CC(=O)OC12COC1CC(O)C1(C)C(=O)C(O)C3=C(C)C(OC(=O)C(O)C(NC(=O)OC(C)(C)C)c4ccccc4)CC(O)(C(OC(=O)c4ccccc4)C21)C3(C)C (stereo not given) + CNCc1ccccc1-c1csc(C(C)Nc2nc(C)nc3cc(OC)c(OC)cc23)c1
rule met

Subsequent entry: CCN1CCN(Cc2ccc(Nc3ncc(F)c(-c4cc(F)c5nc(C)n(C(C)C)c5c4)n3)nc2)CC1 + C=CC(=O)N1CCN(c2nc(=O)n(-c3c(C)ccnc3C(C)C)c3nc(-c4c(O)cccc4F)c(F)cc23)C(C)C1
rule met
